Overview of recorded pIC50 for various compounds
System: A549
Method notes: Cytotoxicity against human A549 cells after 72 hrs by MTT assay
Assay type: functional, cell-based
Run conditions: A549, 72 h
Notebook: values listed as pIC50 are -log10 of the concentration (mol/L).

> print(dat)
                            compound.string  obs.value
1  CCOP(=O)(OCC)Oc1ccc2nc3c(c(C)c2c1)Cn1c-3cc2c(c1=O)COC(=O)C[C@]2(O)CC       5.09

Okay, next one:
Look up and report measured pIC50 for this entry: `CCOP(=O)(O)Oc1ccc2nc3c(c(C)c2c1)Cn1c-3cc2c(c1=O)COC(=O)C[C@]2(O)CC`
4.94

Attribution: ChEMBL document CHEMBL1158530
